assay: Water solubility (shake-flask, PBS pH 7.4); format: physicochemical; conditions: aqueous buffer, thermodynamic from solid
attribute.measured: solubility at 24 h (µM)
# value in µM; strip the unit string

Task: For the compound CCOc1nc2cc(Cl)c(OC)cc2n1CCNC(C)=O , what solubility at 24 h is on record?
Result: 200

Task: For the compound CCOc1nc2ccc(OC)cc2n1CCCNC(C)=O , what solubility at 24 h is on record?
Result: 200

Task: For the compound COc1ccc2cccc(CCNC(C)=O)c2c1 [IA2-76, agomelatine, reference compound] , what solubility at 24 h is on record?
Result: 196
